tested on: PC-3 prostate; experiment: NCI tumour cell line growth inhibition, 48 h
Here the recorded GI50 is given for each entry.

Some compounds with known GI50 results, for comparison:
COc1cc2c(Oc3ccc4[nH]c(C)cc4c3F)ncnc2cc1OCCCN1CCCC1 | 4.63 µM
COc1cc(/C=C/c2cc(/C=C/c3ccc(O)c(OC)c3)n(C(=O)Cc3ccccc3)n2)ccc1O | 0.915 µM

Indicate the recorded GI50 value for this compound: CCCCc1ccc(NS(=O)(=O)c2cc3c4c(c2)CCN4C(=O)CC3)cc1
11.7 µM

// fetch GI50 given entry COc1cc(C2CC(c3ccc(SC)cc3)=NN2C(C)=O)cc(OC)c1OC (stereo not given)
16.2 µM

Tell me measured GI50 for COc1ccc(/C=C/C(=O)c2c(O)c(C)c(O)c3c2OC2=CC(O)=C(C(C)=O)C(=O)[C@]23C)cc1 please.
0.611 µM

* * *

test system: OVCAR-3 ovarian; assay: NCI tumour cell line growth inhibition, 48 h
Reported Endpoint: TGI

Illustrative cases are given below, each with its answer.
CCOC(=O)c1csc(NC(=O)CN2CCN(c3ccccc3)CC2)n1 | > 100 µM
NC(N)=Nc1ccc(CC(N)C(=O)NCC(=O)C(CC(=O)O)c2ncc(NC(=O)C(F)(F)F)o2)cc1 (stereo not given) | > 25 µM
CC1(C)COC(c2ccccc2-c2ccccc2)=N1 | > 100 µM
CN(c1ccc(C(=O)O)cc1)c1cc(O/N=[N+](\[O-])N(C)C)c([N+](=O)[O-])cc1[N+](=O)[O-] | 6.92 µM

Proceeding to the next molecule to report its TGI.
// output TGI; input O=c1[nH]cnc2c1ncn2C1CCC(CO)O1 (stereo not given) ; system OVCAR-3 ovarian
> 1000 µM

* * *

test system: HT29 colon; test: NCI tumour cell line growth inhibition, 48 h
compounds and their reported TGI

CCOC(=O)[C@]12C3C=CC(C3)C1C(=O)C1OC12 (some centres undefined) | > 100 µM
CCOC(=O)C1CSCCSC1 | > 100 µM
CN(c1ccc(C(=O)O)cc1)c1cc(O/N=[N+](\[O-])N(C)C)c([N+](=O)[O-])cc1[N+](=O)[O-] | > 100 µM
CC(CN(C)C)C(C#N)(c1ccccc1)c1ccccc1 (centres undefined) | > 100 µM

Tell us which TGI value is on record for Cn1c(=O)c2[nH]c(CCCCc3nc4ccccc4[nH]3)nc2n(C)c1=O
> 100 µM

* * *

The entries below are paired with their reported TGI.
test system: HS 578T breast; test: NCI tumour cell line growth inhibition, 48 h

Please indicate TGI recorded for CCC(=O)Nc1cccc(NC(=O)c2c(Cl)c(Cl)c(Cl)c(Cl)c2-c2nc3ccccc3[nH]2)c1
> 100 µM

For O=c1[nH]cnc2c1ncn2C1CCC(CO)O1 (stereo unspecified) , write its TGI.
> 1000 µM

Look up and report measured TGI for this entry: Cc1ccc(S(=O)(=O)N/N=C2/C3CCC(C3)C2c2ccccc2)cc1 (stereo unspecified)
> 100 µM

Tell me TGI reported for CN1C(=O)C(/C=N/NC(=O)c2cccnc2)C(N)N(C)C1=O (stereo unspecified)
> 100 µM

Please indicate TGI recorded for CC(CN(C)C)C(C#N)(c1ccccc1)c1ccccc1 (stereo unspecified)
> 100 µM

* * *

test system: OVCAR-5 ovarian; test: NCI tumour cell line growth inhibition, 48 h
Reported Endpoint: TGI

Record excerpt, results attached:
O=c1[nH]c2cc([N+](=O)[O-])ccc2nc1/C(=N/Nc1ccccc1)C(O)c1ccc(Cl)cc1Cl (stereo not drawn) | > 100 µM
Cc1cccc(/C=N/NC(=S)Nc2ccc(Cl)cc2)n1 | 73.3 µM
O=c1c(Nc2ccccc2)cn(CCOc2ccccc2)c(=O)n1CCOc1ccccc1 | > 100 µM
CN(C)/C=N/S(=O)(=O)c1nn2c(C=O)c(-c3ccccc3)nc2s1 | > 100 µM
COC(=O)C1=C(OC(=O)/C(=C/c2ccccc2)c2ccc([N+](=O)[O-])cc2)C(C(=O)OC)[C@@]2(O)[C@@H](C(=O)OC)[C@H](C)C[C@@H]1[C@@H]2C(=O)OC (stereo partly drawn) | > 100 µM

Tell us which TGI value is on record for CCCCc1ccc(NS(=O)(=O)c2cc3c4c(c2)CCN4C(=O)CC3)cc1
> 100 µM

Give TGI for Oc1ccc(OCCOc2ccc(O)cc2)cc1
> 100 µM

Look up and report measured TGI for this entry: CC(C)(C)c1ccc2c(c1)OP1(Oc3cccc4cccnc34)(O2)Oc2ccc(C(C)(C)C)cc2O1
32 µM

Fill in TGI for record CC(C)(C)OC(=O)C1=C(O)C(C(=O)OC(C)(C)C)C23CCCCC12C(C(=O)OC(C)(C)C)C(O)=C3C(=O)OC(C)(C)C (stereo not drawn)
> 100 µM

State, in one line, measured TGI of O=C(O)[C@@H](NS(=O)(=O)c1ccc(F)cc1)c1ccccc1
> 100 µM

Provide only the value of recorded TGI for COc1cc(/C=C/c2cc(/C=C/c3ccc(O)c(OC)c3)n(C(N)=O)n2)ccc1O
> 100 µM

Give the reported value of TGI for this record: CSc1ccc(C2=NN(c3ccccc3)C(c3ccc(-c4cc(Cl)c(Cl)cc4Cl)o3)C2)cc1 (stereo not drawn)
> 100 µM

Fill in TGI for record CCOc1ccccc1/C=C(/C#N)C(N)=O
> 100 µM

State its TGI for this molecule: COc1ccc(Cc2nccc3cc(OC)c(OC)cc23)cc1
> 100 µM
